Recorded values, source patent US20190247343A1.

- Experimental Details: Aqueous phase solubility as a function of pH / medium
- Type: physicochemical
- Setup Conditions: aqueous buffer; Phosphate buffer pH = 4.5
Value Type: solubility (µg/mL)
Give bare numbers, in µg/mL.

Find the recorded solubility belonging to CC(C)(Oc1ccc(C(=O)c2ccc(Cl)cc2)cc1)C(=O)O [fenofibric acid] and report it. 40

----------
- Experimental Details: Aqueous phase solubility as a function of pH / medium
- Assay type: physicochemical
- Setup Conditions: 0.1N HCl, simulated gastric fluid
Value Type: solubility (µg/mL)
Numbers only, in µg/mL.

Find the recorded solubility belonging to CC(C)(Oc1ccc(C(=O)c2ccc(Cl)cc2)cc1)C(=O)O and report it. 2
